experiment: protein stability index of a GFP-peptide fusion (GPS, HEK-293T) (PSI 1-6); higher = more stable; settings: treatment: DMSO; c terminus: a fixed tail appended;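 further: 24-mer peptide tiles fused after GFP, lentivirally expressed, FACS-sorted into six equal bins by GFP/DsRed ratio, decoded by Illumina sequencing, PSI is the read-weighted mean bin number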
property label: protein stability index

>>> numeric_result("IVLDRALHIPMYFFLAILSCSEIC [OR10K2]")
3.1
>>> numeric_result("VMRTKSSEKAANDDHSVRVAREDV [CPXM2]")
5.08
>>> numeric_result("KRIKVPDYKDRSVFGVPLTVNVQR [DLC1]")
3.02
>>> numeric_result("QYFTNRLDMSQNVSLVTAELSKDA [SLC29A1]")
4.2
>>> numeric_result("LALVTLLSFATRFHRLDEPPHICW [POMT2]")
3.25
>>> numeric_result("LQLKQELAMLNAVTEDLRLKDWEH [SCARA5]")
3.36
>>> numeric_result("NGFGLVEDSAQNCFALIPKAPKKD [EFHC1]")
4.75
>>> numeric_result("PQKRKPQEQLLECNKLCGRGQSRQ [SLC2A12]")
4.1
>>> numeric_result("KELRDGGEQDTWAGEGAEALARNL [NFE2L1]")
5.26
>>> numeric_result("DLVFVIDGSKSLGEENFEVVKQFV [MATN2]")
2.38
>>> numeric_result("DRYSEGIKHVLQTFGPIPEFSRAT [CRYL1]")
3.06
>>> numeric_result("EEIVFNLTNNVDLDNTKKKMEIYQ [MNAT1]")
4.05
>>> numeric_result("LQSGQEYVFFVLAVMEHAESKMYA [PTPRD]")
2.4
>>> numeric_result("LSEDDKLQGAASHVPEGFDPTGPA [EHMT1]")
5.33
>>> numeric_result("NVVTIGLAFFPFLHRLFREKSLDQ [PHTF1]")
2.24
>>> numeric_result("DIKNPEITTNRFYGPQVNNISHTK [WASL]")
3.19
>>> numeric_result("QEAAERESKLLRDLSAANEKNLLL [LRRC45]")
4.37
>>> numeric_result("RHTLQKLTCEFNNNHESLDEELHL [FBXO39]")
4.38
>>> numeric_result("GRGLYVYSLQMKRVIACQKTAHDS [WDR41]")
2.08
>>> numeric_result("RPQGPQLRQQQHKQNKQVLGYCLL [DNAJC4]")
2.52
>>> numeric_result("TSEESRPRLSQLSVTDVTTSSLRL [TNXB]")
4.18
>>> numeric_result("SSESSDAGLCMDSPSPMDPHMAEQ [CDC25B]")
5.67
>>> numeric_result("KYVVSGFDVDHGICIMDAENITTV [WDR88]")
2.28
>>> numeric_result("SPNTPQPVPEQSALCQGLYFHINQ [FAM104A]")
3
>>> numeric_result("YSSGPQSWYPKANNQDFIPFTKKR [ZC2HC1C]")
3.07
>>> numeric_result("RSQHARKETEFLRLKRTRLGLDDF [STK38L]")
2.95

* * *

assay: protein stability index of a GFP-peptide fusion (GPS, HEK-293T) (PSI 1-6); higher = more stable; settings: treatment: DMSO; c terminus: a fixed tail appended
Class definitions on protein stability index: lowest: < 3; middle: ≥ 3 and < 4; highest: ≥ 4

>>> group_label("RTERVEQAFRAIDRGDYYLEGYRD [PCMTD1]")
"middle"
>>> group_label("HAAHVVCRELGYVEAKSWTASSSY [LOXL2]")
"lowest"
>>> group_label("DGLLGDNQIMPKTGFLIIILAIIA [MAGEA6]")
"lowest"
>>> group_label("IQLFEELQELLTHDTKDQSPSRAP [HMOX1]")
"middle"
>>> group_label("KAKPEPDILEEEKIYAYPSNITSE [TMEM192]")
"highest"
>>> group_label("SRRASESSLSSESSESSDAGLCMD [CDC25B]")
"highest"
>>> group_label("KDLQKEQKTLQVKCQHYKKKRTEQ [CEP70]")
"highest"
>>> group_label("MMPLAEAGALAQGGGPSATEWACI [C6orf223]")
"middle"
>>> group_label("DVTADSKVLEALKLKGAEVTYMNM [PLD5]")
"middle"
>>> group_label("GLSVSSRFSSGGACGLGGGYGGGF [KRT16]")
"lowest"
>>> group_label("FKKFIRRDFLLDEANGLLPDDKLT [SPOPL]")
"lowest"
>>> group_label("IQIAFEEVPQLPPRASISHVTCVD [C2CD2L]")
"lowest"
>>> group_label("IEKEEQEKKRKEEEERRRREEEER [ACBD3]")
"highest"
>>> group_label("NHSLETCETTLFALRMATWNQILD [PTGFR]")
"lowest"
>>> group_label("HDGEDVACPQGGVQYGAGVACSET [LOXL2]")
"highest"
>>> group_label("LRHSFQKQQREKTRWLNSGRGDEA [ADD1]")
"middle"
>>> group_label("ALLQAMKDLDGMDADILGLKKSNS [FBF1]")
"lowest"
>>> group_label("TPAPMSSAWKTVACGGTRDQLFMQ [MYBL2]")
"lowest"
>>> group_label("SPPVDLFATASAAVPVSTSKPSSD [SNAP91]")
"highest"
>>> group_label("ITPTKKIELDRTIMPDGTIVTTVT [C2CD2L]")
"lowest"
>>> group_label("MMRMFSENLAHHLEIDSGVITLDP [TRIM15]")
"lowest"
